Test system: NCI-H1417 complex spheroids, growth % test/control
Test: Anticancer human tumor NCI-H1417 cell line growth inhibition [Asc];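 also: spheroids exposed to compounds for 7 days; 100% = DMSO vehicle control wells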
Conditions: second compound 0.1 µM; first compound 0.00316 µM; stronger effect = lower value
parameter: viability, T/C

- compound: "O=C(c1ccc(F)c(F)c1Nc1ccc(I)cc1F)N1CC(O)([C@@H]2CCCCN2)C1 + Cc1c(S(C)(=O)=O)c(-c2cc(F)cc(N3CCN(c4ccc(NS(=O)(=O)c5ccc(NC(CCN6CCC(C(=O)OCCCP(=O)(O)O)CC6)CSc6ccccc6)c(S(=O)(=O)C(F)(F)F)c5)cc4)CC3)c2)c(-c2ccc(Cl)cc2)n1C(C)C"
  parameter: "viability, T/C"
  result: "84.2%"

Turning to the following compound.
// query Could you please provide reported viability, T/C for O=C(c1ccc(F)c(F)c1Nc1ccc(I)cc1F)N1CC(O)([C@@H]2CCCCN2)C1 + CNC(C)C(=O)NC1CN(S(=O)(=O)c2cccc(S(=O)(=O)N3CCC4CCC(C(=O)NC(c5ccccc5)c5ccccc5)N4C(=O)C(NC(=O)C(C)NC)C3)c2)CCC2CCC(C(=O)NC(c3ccccc3)c3ccccc3)N2C1=O ? Thanks!
// result 101%

* * *

Tested on: NCI-H1417 complex spheroids, growth % test/control
Experiment: Anticancer human tumor NCI-H1417 cell line growth inhibition [Asc]; active means viability on the fitted dose curve at most 10% of control; inactive means the rest;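 also: spheroids exposed to compounds for 7 days; 100% = DMSO vehicle control wells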
Details: second compound 0.3 µM; first compound 10 µM
A correct response names exactly one class from yes (1) = active, no (0) = inactive

Below are worked cases with known answers.
- compound: "C=CC(=O)N1CCN(c2nc(=O)n(-c3c(C)ccnc3C(C)C)c3nc(-c4c(O)cccc4F)c(F)cc23)C(C)C1 (centres undefined) + CCN1C(C(=O)NC23CCC(C(=O)O)(CC2)CC3)C(c2cccc(Cl)c2F)C2(C(=O)Nc3cc(Cl)ccc32)C12CCCCC2"
  tgt: "NCI-H1417 complex spheroids, growth % test/control"
  assigned_label: "no (0)"
- compound: "C#Cc1c(F)ccc2cc(O)cc(-c3ncc4c(N5CC6CCC(C5)N6)nc(OCC56CCCN5CC(F)C6)nc4c3F)c12 (centres undefined) + CCN1C(C(=O)NC23CCC(C(=O)O)(CC2)CC3)C(c2cccc(Cl)c2F)C2(C(=O)Nc3cc(Cl)ccc32)C12CCCCC2"
  tgt: "NCI-H1417 complex spheroids, growth % test/control"
  assigned_label: "no (0)"
- compound: "C=C(F)C(=O)N1CCN(c2nc(OCC3CCCN3C)nc3c2CCN(c2cccc4cccc(Cl)c24)C3)CC1CC#N (centres undefined) + CCN1C(C(=O)NC23CCC(C(=O)O)(CC2)CC3)C(c2cccc(Cl)c2F)C2(C(=O)Nc3cc(Cl)ccc32)C12CCCCC2"
  tgt: "NCI-H1417 complex spheroids, growth % test/control"
  assigned_label: "yes (1)"

Then there is this compound:
// query What classification did O=C(c1cc(Cc2n[nH]c(=O)c3ccccc23)ccc1F)N1CCN(C(=O)C2CC2)CC1 + CCN1C(C(=O)NC23CCC(C(=O)O)(CC2)CC3)C(c2cccc(Cl)c2F)C2(C(=O)Nc3cc(Cl)ccc32)C12CCCCC2 end up with in this test?
// result no (0)

* * *

// reported viability, T/C per item
Tested on: NCI-H1417 complex spheroids, growth % test/control
Assay: Anticancer human tumor NCI-H1417 cell line growth inhibition [Asc];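 also: spheroids exposed to compounds for 7 days; 100% = DMSO vehicle control wells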
Conditions: second compound 0.316 µM; first compound 0.0316 µM; stronger effect = lower value

- compound: "C=CC(=O)N1CCN(c2nc(=O)n(-c3c(C)ccnc3C(C)C)c3nc(-c4c(O)cccc4F)c(F)cc23)C(C)C1 (stereo not drawn) + Cc1c(S(C)(=O)=O)c(-c2cc(F)cc(N3CCN(c4ccc(NS(=O)(=O)c5ccc(NC(CCN6CCC(C(=O)OCCCP(=O)(O)O)CC6)CSc6ccccc6)c(S(=O)(=O)C(F)(F)F)c5)cc4)CC3)c2)c(-c2ccc(Cl)cc2)n1C(C)C"
  parameter: "viability, T/C"
  result: "50.7%"

// query Write down viability, T/C measured for item COc1c(OCCCN2CCOCC2)ccc2c3n(c(=NC(=O)c4cnc(N)nc4)nc12)CCN3 + Cc1c(S(C)(=O)=O)c(-c2cc(F)cc(N3CCN(c4ccc(NS(=O)(=O)c5ccc(NC(CCN6CCC(C(=O)OCCCP(=O)(O)O)CC6)CSc6ccccc6)c(S(=O)(=O)C(F)(F)F)c5)cc4)CC3)c2)c(-c2ccc(Cl)cc2)n1C(C)C
// result 24.1%

// query Determine its reported viability, T/C: CCN1CCN(Cc2ccc(Nc3ncc(F)c(-c4cc(F)c5nc(C)n(C(C)C)c5c4)n3)nc2)CC1 + CNC(C)C(=O)NC1CN(S(=O)(=O)c2cccc(S(=O)(=O)N3CCC4CCC(C(=O)NC(c5ccccc5)c5ccccc5)N4C(=O)C(NC(=O)C(C)NC)C3)c2)CCC2CCC(C(=O)NC(c3ccccc3)c3ccccc3)N2C1=O
// result 90.6%

* * *

System: NCI-H1417 complex spheroids, growth % test/control
Test: Anticancer human tumor NCI-H1417 cell line growth inhibition [Asc]; active = viability on the fitted dose curve at most 10% of control; inactive = the rest;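 also: spheroids exposed to compounds for 7 days; 100% = DMSO vehicle control wells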
Conditions: second compound 1 µM; first compound 3.16 µM
Can you answer with just one of these options? active, inactive

Record excerpt, results attached:
- molecule: "O=C(c1cc(Cc2n[nH]c(=O)c3ccccc23)ccc1F)N1CCN(C(=O)C2CC2)CC1 + CNC(C)C(=O)NC1CN(S(=O)(=O)c2cccc(S(=O)(=O)N3CCC4CCC(C(=O)NC(c5ccccc5)c5ccccc5)N4C(=O)C(NC(=O)C(C)NC)C3)c2)CCC2CCC(C(=O)NC(c3ccccc3)c3ccccc3)N2C1=O"
  assigned_label: "inactive"
- molecule: "C#Cc1c(F)ccc2cc(O)cc(-c3ncc4c(N5CC6CCC(C5)N6)nc(OCC56CCCN5CC(F)C6)nc4c3F)c12 (stereo not drawn) + Cc1c(S(C)(=O)=O)c(-c2cc(F)cc(N3CCN(c4ccc(NS(=O)(=O)c5ccc(NC(CCN6CCC(C(=O)OCCCP(=O)(O)O)CC6)CSc6ccccc6)c(S(=O)(=O)C(F)(F)F)c5)cc4)CC3)c2)c(-c2ccc(Cl)cc2)n1C(C)C"
  assigned_label: "active"

// query I'd appreciate the recorded outcome for C#Cc1c(F)ccc2cc(O)cc(-c3ncc4c(N5CC6CCC(C5)N6)nc(OCC56CCCN5CC(F)C6)nc4c3F)c12 (stereo not drawn) + CNC(C)C(=O)NC1CN(S(=O)(=O)c2cccc(S(=O)(=O)N3CCC4CCC(C(=O)NC(c5ccccc5)c5ccccc5)N4C(=O)C(NC(=O)C(C)NC)C3)c2)CCC2CCC(C(=O)NC(c3ccccc3)c3ccccc3)N2C1=O from this test.
// result inactive

* * *

Test system: NCI-H1417 complex spheroids, growth % test/control
Test: Anticancer human tumor NCI-H1417 cell line growth inhibition [Asc];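 also: spheroids exposed to compounds for 7 days; 100% = DMSO vehicle control wells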
Settings: second compound 10 µM; first compound 0.1 µM; stronger effect = lower value
parameter: viability, T/C (%)
Give just the numeric value; % need not be written.

Previously resolved entries follow.
- molecule: "C#Cc1c(F)ccc2cc(O)cc(-c3ncc4c(N5CC6CCC(C5)N6)nc(OCC56CCCN5CC(F)C6)nc4c3F)c12 (stereo not drawn) + Cc1c(S(C)(=O)=O)c(-c2cc(F)cc(N3CCN(c4ccc(NS(=O)(=O)c5ccc(NC(CCN6CCC(C(=O)OCCCP(=O)(O)O)CC6)CSc6ccccc6)c(S(=O)(=O)C(F)(F)F)c5)cc4)CC3)c2)c(-c2ccc(Cl)cc2)n1C(C)C"
  display_unit: "%"
  viability, T/C: 2.06
- molecule: "C=CC(=O)N1CCN(c2nc(=O)n(-c3c(C)ccnc3C(C)C)c3nc(-c4c(O)cccc4F)c(F)cc23)C(C)C1 (stereo not drawn) + Cc1c(S(C)(=O)=O)c(-c2cc(F)cc(N3CCN(c4ccc(NS(=O)(=O)c5ccc(NC(CCN6CCC(C(=O)OCCCP(=O)(O)O)CC6)CSc6ccccc6)c(S(=O)(=O)C(F)(F)F)c5)cc4)CC3)c2)c(-c2ccc(Cl)cc2)n1C(C)C"
  display_unit: "%"
  viability, T/C: 2.89

The record that follows has no viability, T/C shown yet.
// query Check the records and state viability, T/C for CCN1CCN(Cc2ccc(Nc3ncc(F)c(-c4cc(F)c5nc(C)n(C(C)C)c5c4)n3)nc2)CC1 + Cc1c(S(C)(=O)=O)c(-c2cc(F)cc(N3CCN(c4ccc(NS(=O)(=O)c5ccc(NC(CCN6CCC(C(=O)OCCCP(=O)(O)O)CC6)CSc6ccccc6)c(S(=O)(=O)C(F)(F)F)c5)cc4)CC3)c2)c(-c2ccc(Cl)cc2)n1C(C)C
// result 1.72

* * *

Test system: NCI-H1417 complex spheroids, growth % test/control
Test: Anticancer human tumor NCI-H1417 cell line growth inhibition [Asc];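 also: spheroids exposed to compounds for 7 days; 100% = DMSO vehicle control wells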
Conditions: second compound 10 µM; first compound 0.316 µM; stronger effect = lower value
parameter: viability, T/C (%)
# output: bare number, implied unit %

// query Name the recorded viability, T/C of the item COc1c(OCCCN2CCOCC2)ccc2c3n(c(=NC(=O)c4cnc(N)nc4)nc12)CCN3 + Cc1c(S(C)(=O)=O)c(-c2cc(F)cc(N3CCN(c4ccc(NS(=O)(=O)c5ccc(NC(CCN6CCC(C(=O)OCCCP(=O)(O)O)CC6)CSc6ccccc6)c(S(=O)(=O)C(F)(F)F)c5)cc4)CC3)c2)c(-c2ccc(Cl)cc2)n1C(C)C in your answer.
// result 0.21

// query Output viability, T/C of C=C(F)C(=O)N1CCN(c2nc(OCC3CCCN3C)nc3c2CCN(c2cccc4cccc(Cl)c24)C3)CC1CC#N (stereo not drawn) + Cc1c(S(C)(=O)=O)c(-c2cc(F)cc(N3CCN(c4ccc(NS(=O)(=O)c5ccc(NC(CCN6CCC(C(=O)OCCCP(=O)(O)O)CC6)CSc6ccccc6)c(S(=O)(=O)C(F)(F)F)c5)cc4)CC3)c2)c(-c2ccc(Cl)cc2)n1C(C)C
// result 3.34

// query Given the compound O=C(c1ccc(F)c(F)c1Nc1ccc(I)cc1F)N1CC(O)([C@@H]2CCCCN2)C1 + Cc1c(S(C)(=O)=O)c(-c2cc(F)cc(N3CCN(c4ccc(NS(=O)(=O)c5ccc(NC(CCN6CCC(C(=O)OCCCP(=O)(O)O)CC6)CSc6ccccc6)c(S(=O)(=O)C(F)(F)F)c5)cc4)CC3)c2)c(-c2ccc(Cl)cc2)n1C(C)C , write its reported viability, T/C.
// result 1.3
